test system: M14 melanoma; test: NCI tumour cell line growth inhibition, 48 h
We begin with a simple list: items and their reported GI50.

Answered examples (2):
molecule	reported
O=C1CC2OCC=C3CN4CCC56c7ccccc7N1C5C2C3CC46 (stereo not drawn) (tested in a mixture with another compound)	> 50 µg/mL
CSc1nc(-c2cccc(NC(=O)CCl)c2)c(C#N)c(=O)n1C	1780 nM

Measured GI50 of `NC(N)=N/N=C/c1ccc(Br)cc1` : 2210 nM

---

tested on: OVCAR-8 ovarian; assay: NCI tumour cell line growth inhibition, 48 h
Here the recorded TGI is given for each entry.

Example results:
compound	study system	TGI
NNC(=O)N/N=C1/C(=O)N(c2ccc(Cl)c(Cl)c2)C(=O)C(=O)C1c1nc2ccccc2o1 (configuration not stated)	OVCAR-8 ovarian	> 100 µM
COc1ccc(S(=O)(=O)N/N=C/CN2C(=O)c3ccccc3C2=O)cc1	OVCAR-8 ovarian	> 100 µM
ClCCCN1CCCCC1CCl (configuration not stated)	OVCAR-8 ovarian	> 100 µM
C/C(CC(O)(C(F)(F)F)C(F)(F)F)=N/Nc1ccc([N+](=O)[O-])cc1[N+](=O)[O-]	OVCAR-8 ovarian	> 10 µM
CCOC(=O)c1c(CN2CCOCC2)n(Cc2ccccc2)c2c1cc(O)c1nc(C)c(C)nc12	OVCAR-8 ovarian	53.4 µM

Reported TGI for CCOC(=O)C1C(=O)c2cccc(OC)c2C2COC(=O)N12 (configuration not stated) was > 100 µM

According to the records, this compound `NS(=O)(=O)c1ccc(N=Nc2c(=O)[nH]c3ccc4[nH]cccc4c23)cc1` displays TGI of > 25 µM

Recorded result, C1COCCOP2(N3CC3)=NP(N3CC3)(=NP(N3CC3)(N3CC3)=N2)OCCOCCO1 (configuration not stated) , TGI: > 100 µM

For `CC(C)[C@H]1NC(=O)[C@H]2N=C(O[C@@H]2C)[C@@H]2CCCN2C(=O)[C@H](Cc2ccccc2)NC(=O)[C@@H]2COC(=N2)[C@@H](Cc2ccccc2)NC(=O)[C@@H]2COC1=N2` the compound record lists TGI as > 100 µM

---

test system: NCI-H460 lung; experiment: NCI tumour cell line growth inhibition, 48 h
observable: TGI

Take a look at these entries with their results.
molecule	observable	reported
CCOC(=O)C1C(=O)c2cccc(OC)c2C2COC(=O)N12 (stereo unspecified)	TGI	> 100 µM
O=C(CN1CCN(c2ccccn2)CC1)Nc1ccc(Cl)cc1C(=O)c1ccccc1Cl	TGI	> 100 µM
CC(C)C(=O)CP(=O)(O)O	TGI	> 100 µM
C/C(CC(O)(C(F)(F)F)C(F)(F)F)=N/Nc1ccc([N+](=O)[O-])cc1[N+](=O)[O-]	TGI	> 10 µM
O=C(NC(Cc1ccccc1)P(=O)(O)c1ccccc1)OCc1ccccc1 (stereo unspecified)	TGI	> 100 µM
O=C1NC(=O)C2(CCc3ccc(N(CCCl)CCCl)cc32)N1 (stereo unspecified)	TGI	23.8 µM
C/C=C1/C(=O)O[C@]23C=C[C@@H]4C(C(=O)OC)=CO[C@H](O[C@@H]12)[C@@H]43	TGI	32.4 µM
CCN(CC)c1ccc2cc(-c3csc(-c4ccc(N(C)C)cc4)n3)c(=O)oc2c1	TGI	> 100 µM

molecule N#CC1C(=O)NC(=O)C(C#N)C1c1ccc(Cl)c(Cl)c1 (stereo unspecified) , TGI observed: > 100 µM

---

system: NCI-H460 lung; assay: NCI tumour cell line growth inhibition, 48 h
observable: TGI (µM)
Field format: number, assumed µM, no unit text.

entry smiles	reported
CC(C)[Si](OC1=CCC[C@H]2NC(=O)[C@@H](Cc3ccc([N+](=O)[O-])cc3)[C@@]12C)(C(C)C)C(C)C	10.5
CC1=C(C(=O)NCc2ccccc2)C(c2ccccc2O)C(C(=O)NCc2ccccc2)=C(C)N1	39.2
NC(N)=N/N=C/c1ccc(Br)cc1	11.7

# next compound below
// TGI lookup, compound = `Nc1cc(N)c2nc(-c3ccccc3)c(Oc3ccc(Cl)c(Cl)c3)nc2c1` , result: 71.4

---

tested on: RPMI-8226 leukemia; assay: NCI tumour cell line growth inhibition, 48 h
# if value of TGI reaches 40 µM, tag T; if it stays below, tag F

Reference set, count: 8
compound	label class
CN(C)c1ccc(/C=c2\sc3nnc(Cc4ccccc4)n3c2=O)cc1	T
CC(=O)Nc1ccc(OCC(O)CO)cc1 (configuration not stated)	T
NCCSc1nc(N)c2ncn(C3OC(CO)C(O)C3O)c2n1 (configuration not stated)	T
CCc1cccc(CC)c1NC(=O)C1=CNC(C)=C(C(=O)Nc2c(CC)cccc2CC)C1c1ccc(O)c(OC)c1 (configuration not stated)	T
C=C(C)COC(=O)COCC(=O)OCC(=C)C	T
COc1ccc(/C=C/C(=O)/C=C(/C=C/c2ccc(OC)c(OC)c2OC)OB(F)F)c(OC)c1OC	F
NC(N)=N/N=C/c1c(-c2ccc(Cl)cc2)nc2n1CCS2	F
O=C(N1CCN(c2ccccc2)CC1)N(C(=O)C1(c2ccc(Cl)cc2)CCCC1)S(=O)(=O)c1ccccc1	T

Exercise: Assess whether reported TGI for `CC(=O)Nc1nc(C)c(-c2cc3c(c(S(C)(=O)=O)c2)C(=O)N([C@@H](C)C2CC2)C3)s1` sits at 40 µM or higher.
Solution: T

Exercise: Assess whether reported TGI for CCCCCCCCCCCCCCCC(N)c1ccccc1 (configuration not stated) sits at 40 µM or higher.
Solution: F

Exercise: Assess whether reported TGI for `CC(=O)N1CCN(C=S)CC1` sits at 40 µM or higher.
Solution: T

Exercise: Does `Cc1cccc2c(=O)c3c(O)cc4c(c3n(C)c12)C=CC(C)(C)O4` have a reported TGI of at least 40 µM?
Solution: T

---

Below is a list of entries, each paired with its recorded GI50 value.
system: T-47D breast; test: NCI tumour cell line growth inhibition, 48 h

The examples below pair each entry with its known result.
molecule	reported
Cn1c(=O)c2[nH]cnc2n(C)c1=O.[CH2-]C(Cc1cccc2cc(C(=O)O)c(=O)oc12)OC.[Hg+2].[OH-] (centres undefined)	18.9 µM
CN1C(=O)C(C)(C)Oc2c(-c3cn(C)c(=O)c4[nH]ccc34)cc(S(C)(=O)=O)cc21	0.808 µM
CCCCCCCCCCCCCCCC(N)c1ccccc1 (centres undefined)	1.56 µM
NS(=O)(=O)c1ccc(N=Nc2c(=O)[nH]c3ccc4[nH]cccc4c23)cc1	0.48 µM

Entry `Nc1cc(N)c2nc(-c3ccccc3)c(Oc3ccc(Cl)c(Cl)c3)nc2c1` , GI50 reported as 24.5 µM

Form: molecule = `COn1cc(C(=O)N=C(SC)SC)c2ccccc21` ; GI50 = 75.1 µM

Looking up `C[C@H](CCCOS(C)(=O)=O)[C@H]1CC[C@H]2[C@@H]3CC[C@@H]4C[C@H](OS(C)(=O)=O)CC[C@]4(C)[C@H]3CC[C@]12C` , I found its GI50 recorded as 1040 µM

# GI50 (molecule: `COc1ccc2c(c1)NC(=O)CN2c1nc(C)nc2ccccc12` ) is 5.89 µM

Recorded GI50 (molecule C=C1C(OCCO)OC2O[C@]3(C)CCC4[C@H](C)CCC1C24OO3 (some centres undefined) ): 1.56 µM

---

tested on: HS 578T breast; experiment: NCI tumour cell line growth inhibition, 48 h
Reported TGI values follow for various compounds

Look over these answered cases.
compound	TGI
C=[N+](CNC(=O)CNC(=O)C(Cc1ccccc1)NC(=O)OC(C)(C)C)C(=O)CNC(=O)C(Cc1ccccc1)NC(=O)OC(C)(C)C (stereo not given)	> 100 µM
NC(N)=NC(N)=NCc1ccco1	> 1250 µM
NNC(=O)CSc1nnc(CCCCCCCCc2nnc(SCC(=O)NN)o2)o1	> 100 µM
CC1CC2(C)CC(=O)C1C1C(=O)N(CCN3CCOCC3)C(=O)C12 (stereo not given)	> 100 µM

Continue with the compound presented below.
Record summary for `Cc1ccc2nnc(NS(=O)(=O)c3cc(C)c(Cl)cc3S)n2n1` : reported TGI = > 100 µM

---

tested on: NCI/ADR-RES ovarian; assay: NCI tumour cell line growth inhibition, 48 h
Reported TGI values are given for each entry in this list.

Recorded results for 3 compounds are shown here.
compound	TGI
CCCNC(=O)Nc1ccc2c(c1)Cc1cc(N(CCCl)CCCl)ccc1-2	> 100 µM
Cc1cc(C)nc(NS(=O)(=O)c2ccc(NC(=O)c3ccc4nc5ccccc5c(Nc5ccc(S(=O)(=O)Nc6nc(C)cc(C)n6)cc5)c4c3)cc2)n1	> 100 µM
C/C(CC(O)(C(F)(F)F)C(F)(F)F)=N/Nc1ccc([N+](=O)[O-])cc1[N+](=O)[O-]	> 10 µM

Quick note, TGI for COc1cc2c3c4c1OCc1c5c(cc(c1-4)CC3[N+](C)(C)CC2)OCO5 (centres undefined) landed at > 100 µM

Sourced from PubChem BioAssay (NCI)
